B1: DnaJ homolog subfamily C member 2, residues 451 to 503; numbered along this chain, Q99543 (parent)
chain: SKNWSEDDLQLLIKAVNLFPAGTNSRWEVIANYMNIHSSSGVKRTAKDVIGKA

- Variants of: B1
- assay-method-text: abundance fitness (aPCA) (normalised: wild type 0, dead -1); higher = more abundant; growth selection in yeast, the domain comes from the species named
- applied-conditions: Homo sapiens

>  <variant-identifier>
S38P

>  <abundance fitness>
-0.936

$$$$
>  <variant-identifier>
L18M

>  <abundance fitness>
0.065

$$$$
>  <variant-identifier>
G22T

>  <abundance fitness>
-0.065

$$$$
>  <variant-identifier>
I36S

>  <abundance fitness>
0.014

$$$$
>  <variant-identifier>
G51W

>  <abundance fitness>
-0.064

$$$$
>  <variant-identifier>
V29A

>  <abundance fitness>
0.082

$$$$
>  <variant-identifier>
W27H

>  <abundance fitness>
-0.537

$$$$
>  <variant-identifier>
S5M

>  <abundance fitness>
-0.514

$$$$
>  <variant-identifier>
K2R

>  <abundance fitness>
-0.184

$$$$
>  <variant-identifier>
Y33M

>  <abundance fitness>
-0.882

$$$$
>  <variant-identifier>
S38R

>  <abundance fitness>
-0.435

$$$$
>  <variant-identifier>
N17A

>  <abundance fitness>
-0.085

$$$$
>  <variant-identifier>
V16M

>  <abundance fitness>
0.065

$$$$
>  <variant-identifier>
K2W

>  <abundance fitness>
-0.334

$$$$
>  <variant-identifier>
A15T

>  <abundance fitness>
-0.519

$$$$
>  <variant-identifier>
V29M

>  <abundance fitness>
0.078

$$$$
>  <variant-identifier>
K52T

>  <abundance fitness>
-0.197

$$$$
>  <variant-identifier>
Q10W

>  <abundance fitness>
-0.706

$$$$
>  <variant-identifier>
N17W

>  <abundance fitness>
-0.348

$$$$
>  <variant-identifier>
A15G

>  <abundance fitness>
-0.182

$$$$
>  <variant-identifier>
L18W

>  <abundance fitness>
-0.547

$$$$
>  <variant-identifier>
E28V

>  <abundance fitness>
-0.259

$$$$
>  <variant-identifier>
Y33H

>  <abundance fitness>
-0.414

$$$$
>  <variant-identifier>
S1T

>  <abundance fitness>
-0.086

$$$$
>  <variant-identifier>
A53S

>  <abundance fitness>
-0.001

$$$$
>  <variant-identifier>
A31T

>  <abundance fitness>
0.051

$$$$
>  <variant-identifier>
N3H

>  <abundance fitness>
-0.025

$$$$
>  <variant-identifier>
G51K

>  <abundance fitness>
0.12

$$$$
>  <variant-identifier>
A21E

>  <abundance fitness>
0.066

$$$$
>  <variant-identifier>
S25T

>  <abundance fitness>
-0.144

$$$$
>  <variant-identifier>
N32H

>  <abundance fitness>
0.076

$$$$
>  <variant-identifier>
A31V

>  <abundance fitness>
-0.397

$$$$
>  <variant-identifier>
N35K

>  <abundance fitness>
-0.871

$$$$
>  <variant-identifier>
L12I

>  <abundance fitness>
-0.456

$$$$
>  <variant-identifier>
E6G

>  <abundance fitness>
-0.155

$$$$
>  <variant-identifier>
I30L

>  <abundance fitness>
-0.789

$$$$
>  <variant-identifier>
A46R

>  <abundance fitness>
-0.222

$$$$
>  <variant-identifier>
V29G

>  <abundance fitness>
-0.026

$$$$
>  <variant-identifier>
I13Y

>  <abundance fitness>
-0.038

$$$$
>  <variant-identifier>
F19S

>  <abundance fitness>
-0.622

$$$$
>  <variant-identifier>
G41Y

>  <abundance fitness>
-0.25

$$$$
>  <variant-identifier>
V29W

>  <abundance fitness>
-0.082

$$$$
>  <variant-identifier>
D8R

>  <abundance fitness>
-0.453

$$$$
>  <variant-identifier>
I50W

>  <abundance fitness>
-0.085

$$$$
>  <variant-identifier>
V29I

>  <abundance fitness>
-0.127

$$$$
>  <variant-identifier>
G22V

>  <abundance fitness>
-0.28

$$$$
>  <variant-identifier>
K14M

>  <abundance fitness>
-0.226

$$$$
>  <variant-identifier>
V16S

>  <abundance fitness>
-0.054

$$$$
>  <variant-identifier>
W4Q

>  <abundance fitness>
-0.704

$$$$
>  <variant-identifier>
P20T

>  <abundance fitness>
-0.607

$$$$
>  <variant-identifier>
S1F

>  <abundance fitness>
-0.112

$$$$
>  <variant-identifier>
N35I

>  <abundance fitness>
-0.86

$$$$
>  <variant-identifier>
P20W

>  <abundance fitness>
-0.975

$$$$
>  <variant-identifier>
A31E

>  <abundance fitness>
-0.859

$$$$
>  <variant-identifier>
V16I

>  <abundance fitness>
0.08

$$$$
>  <variant-identifier>
P20I

>  <abundance fitness>
-0.961

$$$$
>  <variant-identifier>
W4D

>  <abundance fitness>
-0.808

$$$$
>  <variant-identifier>
V16E

>  <abundance fitness>
-0.042

$$$$
>  <variant-identifier>
L18C

>  <abundance fitness>
-0.222

$$$$
>  <variant-identifier>
S39V

>  <abundance fitness>
-0.158

$$$$
>  <variant-identifier>
K43T

>  <abundance fitness>
-0.006

$$$$
>  <variant-identifier>
N32I

>  <abundance fitness>
-0.66

$$$$
>  <variant-identifier>
M34P

>  <abundance fitness>
-0.553

$$$$
>  <variant-identifier>
G22M

>  <abundance fitness>
-0.371

$$$$
>  <variant-identifier>
E28R

>  <abundance fitness>
-0.138

$$$$
>  <variant-identifier>
S40R

>  <abundance fitness>
-0.286

$$$$
>  <variant-identifier>
A21S

>  <abundance fitness>
-0.029

$$$$
>  <variant-identifier>
L9D

>  <abundance fitness>
0.156

$$$$
>  <variant-identifier>
G41K

>  <abundance fitness>
0.001

$$$$
>  <variant-identifier>
I13Q

>  <abundance fitness>
0.131

$$$$
>  <variant-identifier>
M34Y

>  <abundance fitness>
-0.722

$$$$
>  <variant-identifier>
L11D

>  <abundance fitness>
-0.802

$$$$
>  <variant-identifier>
S25G

>  <abundance fitness>
-0.077

$$$$
>  <variant-identifier>
Q10F

>  <abundance fitness>
-0.483

$$$$
>  <variant-identifier>
A46L

>  <abundance fitness>
-0.355

$$$$
>  <variant-identifier>
V42I

>  <abundance fitness>
0.093

$$$$
>  <variant-identifier>
G41I

>  <abundance fitness>
-0.119

$$$$
>  <variant-identifier>
S39I

>  <abundance fitness>
-0.197

$$$$
>  <variant-identifier>
K47N

>  <abundance fitness>
-0.065

$$$$
>  <variant-identifier>
N32P

>  <abundance fitness>
-0.93

$$$$
>  <variant-identifier>
V16K

>  <abundance fitness>
0.18

$$$$
>  <variant-identifier>
E6P

>  <abundance fitness>
0.107

$$$$
>  <variant-identifier>
D7W

>  <abundance fitness>
-0.437

$$$$
>  <variant-identifier>
S38G

>  <abundance fitness>
-0.069

$$$$
>  <variant-identifier>
I30M

>  <abundance fitness>
-0.535

$$$$
>  <variant-identifier>
N3I

>  <abundance fitness>
0.021

$$$$
>  <variant-identifier>
N32T

>  <abundance fitness>
-0.13

$$$$
>  <variant-identifier>
S39P

>  <abundance fitness>
0.001

$$$$
>  <variant-identifier>
P20M

>  <abundance fitness>
-0.955

$$$$
>  <variant-identifier>
I50A

>  <abundance fitness>
0.085

$$$$
>  <variant-identifier>
W4F

>  <abundance fitness>
-0.104

$$$$
